# Study System: HLA-B60 on HLA typed EBV-LCLs (human)
# Test Details: cell-based competition on acid-treated EBV-LCLs against 150 nM fluorescent reference peptide, flow cytometry
pIC50: −log10 of the molar value.
Assay Readout: pIC50

>>> measured_result("KESTLHLVL [HLA-B60 binder-positive control peptide …]")
5.96

I. KECVLHDDLL [decameric HA-1^H peptide …]
II. KECVLRDDLL [decameric HA-1^R peptide …]
Query string: # return whichever of I and II has the smaller pIC50 Respond using the label that marks the chosen record.
Result string: II
